Every entry's value here was drawn from patent US20180044434A1.

Target: T1, full-length recombinant human PAD4 (human, UniProt Q9UM07 1-663)
T1 construct: Full-length recombinant; also called peptidylarginine deiminase 4
T1 sequence (Q9UM07 whole entry): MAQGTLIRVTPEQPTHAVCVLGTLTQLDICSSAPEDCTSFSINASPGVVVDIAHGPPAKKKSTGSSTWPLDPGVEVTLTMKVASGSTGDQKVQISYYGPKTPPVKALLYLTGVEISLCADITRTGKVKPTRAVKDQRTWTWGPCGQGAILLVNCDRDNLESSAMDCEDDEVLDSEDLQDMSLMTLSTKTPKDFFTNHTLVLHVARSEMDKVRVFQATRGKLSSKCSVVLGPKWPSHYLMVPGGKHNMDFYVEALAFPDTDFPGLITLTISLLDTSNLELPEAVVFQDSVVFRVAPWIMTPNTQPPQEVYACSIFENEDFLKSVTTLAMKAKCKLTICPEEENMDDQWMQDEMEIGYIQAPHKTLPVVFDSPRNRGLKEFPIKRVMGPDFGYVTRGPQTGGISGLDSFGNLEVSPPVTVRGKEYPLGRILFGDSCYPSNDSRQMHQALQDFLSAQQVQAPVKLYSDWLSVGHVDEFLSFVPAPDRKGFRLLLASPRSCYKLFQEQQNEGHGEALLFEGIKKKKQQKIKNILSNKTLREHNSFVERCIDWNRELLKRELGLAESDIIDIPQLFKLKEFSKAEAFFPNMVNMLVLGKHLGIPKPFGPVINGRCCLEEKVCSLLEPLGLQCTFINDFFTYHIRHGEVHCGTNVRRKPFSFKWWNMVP
Assay: ELISA, immobilized human PAD4
We begin with a simple list: items and their reported O.D. 490/630 at 0.03125 µg/mL.
No unit in the answer, please; the number alone is enough.

For orientation, consider the following solved cases.
[[record]]
binder = "humanized anti-PAD4 antibody derived from G8, VH H4.32 / VL L4.00 (antibody, IgG1, V domains shown, IgG1 kappa; also called G8 H4.32/L4.00) VH: EVQLLESGGGLVQPGGSLRLSCAASGFTFSTYAMGWVRQAPGKGLEFVAAIRNDGSWTGYGAAVKGRVTISRDNSKNTVYLQMNSLRAEDTAVYYCAKYTGSSGGSIGAWGQGTLVTVSS VL: SYELTQPPSVSVSPGQTARITCSGGNRNYYYGWYQQKPGQAPVLVIYANDKRPSGIPERFSGSSSGTTVTLTISGVQAEDEADYYCGTADTGKYVFGGGTKLTVLG"
measured_parameter = "O.D. 490/630 at 0.03125 µg/mL"
recorded_result = 1.05

[[record]]
binder = "humanized anti-PAD4 antibody derived from G8, VH H4.15 / VL L4.00 (antibody, human IgG1, kappa, V domains shown, IgG1 kappa; also called G8 H4.15/L4.00) VH: EVQLLESGGGLVQPGGSLRLSCAASGFTFSTYAMGWVRQAPGKGLEFVSAIRNDGSWTGYGAAVKGRFTISRDNSKNTVYLQMNSLRAEDTAVYYCAKYTGSSGGSIGAWGQGTLVTVSS VL: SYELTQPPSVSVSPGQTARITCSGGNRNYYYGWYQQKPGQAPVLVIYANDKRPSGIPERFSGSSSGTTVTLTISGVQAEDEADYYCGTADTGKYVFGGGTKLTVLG"
measured_parameter = "O.D. 490/630 at 0.03125 µg/mL"
recorded_result = 1.52


For this binder ( humanized anti-PAD4 antibody derived from H7, VH H4.15 / VL L4.15 (antibody, IgG1, V domains shown, IgG1 kappa; also called H7 H4.15/L4.15) VH: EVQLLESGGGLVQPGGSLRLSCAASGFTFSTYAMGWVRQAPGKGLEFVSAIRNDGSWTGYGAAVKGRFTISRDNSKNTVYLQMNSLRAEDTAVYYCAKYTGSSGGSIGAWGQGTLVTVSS VL: SYELTQPPSVSVSPGQTARITCSGGSGRYYYGWYQQKPGQAPVTVIYSSTHRPSGIPERFSGSNSGNTTTLTISGVQAEDEADYYCGTADSSSYVFGGGTKLTVLG ), measured O.D. 490/630 at 0.03125 µg/mL is 1.82
